The measured values listed here are drawn from ChEMBL document CHEMBL1201862.

# Tested on: MOLT-4
# testDetails: NCI tumour cell line growth inhibition, 48 h
Active and inactive are the calls of the source. Cut-off read from the data, not from the text of the source: active = GI50 up to about 1.1 µM and inactive = higher. *1 amine or outer side, *2 acyl side, *3 side chain or, on linkers, in order; H or OH if unused. Where a SMILES comes first, the peptide text is derived from it. Bridges are numbered along the chain shown (N, C = ends). [ ]: non-standard residue; d: D form. The star is where a group is joined. ξ: configuration not given here. ξOrn(4,5-diOH) = O=C(C(CC(O)C(O)N[*:3])N[*:1])[*:2]; ξhTyr(βξ-OH,γξ-OH) = NC(C(=O)O)C(O)C(O)c1ccc(O)cc1; ξPro(3ξ-OH,4ξ-Me) = CC1CNC(C(=O)O)C1O; X55 = CCCCC/C=C/C/C=C\CCCCCCCC(=O)*; Hyp = O=C(O)[CH]1C[CH](O)CN1
Labels: 1 for active, 0 for inactive

• CC(C)=CC1CC(=O)C1(C)Sc1ccccc1 (stereo unspecified) = 0
• O=C(NC(Cc1ccc(I)cc1)C(=O)O)c1ccc(Cl)cc1 (stereo unspecified) = 0
• N#CSc1ccc(S(N)(=O)=O)cc1 = 1
• Cc1ccc2c(/C=C/c3ccc(N(C)C)cc3)ccc(C(C)C)cc1-2 = 0
• OCC(O)C(O)C(O)C(O)c1nnn[nH]1 (stereo unspecified) = 0
• CCOC(=O)c1nnsc1NC(=O)NN = 0
• C/C(C=O)=N\Nc1cc(C)c2ccccc2n1 = 0
• COc1c2ccoc2nc2c(OC)c(OCC(O)C(C)(C)O)ccc12 (stereo unspecified) = 0
• COc1ccc(C(=O)/C=C/c2ccc(O)c(O)c2F)c(OC)c1 = 0
• CCCCCCCCC(=O)N(C)C1C2CN3CCC(O2)C13 (stereo unspecified) = 0
• CCCCC/C=C/C/C=C\CCCCCCCC(=O)NC1CC(O)C(O)NC(=O)C2C(O)C(C)CN2C(=O)C(C(C)O)NC(=O)C(C(O)C(O)c2ccc(O)cc2)NC(=O)C2CC(O)CN2C(=O)C(C(C)O)NC1=O (stereo not drawn) (X55-[ξOrn(4,5-diOH)]T[Hyp][ξhTyr(βξ-OH,γξ-OH)]T[ξPro(3ξ-OH,4ξ-Me)]; lactam 1-C; configuration not given here) = 0
• CCOC(=O)/C=C(/C(=O)OCC)n1ccc(N)nc1=O = 0
• O=C(NNC(=O)c1ccco1)c1ccco1 = 0
• CCCCCC/C=C1\CCC(CN2CCCC2)C1=O (stereo unspecified) = 0
• CN1C(=O)CN(NC(=O)C2=C(O)c3ccc(Br)cc3S(=O)(=O)N2)C1=S = 0
• NC(Cc1c2ccccc2cc2ccccc12)C(=O)O (stereo unspecified) = 0
• c1cc2cc(Cc3ccc4[nH]ccc4c3)ccc2[nH]1 = 0
• [O-][Cl+3]([O-])([O-])[O-].c1ccc(C[P+]2(c3ccccc3)CCCCC2)cc1 = 0
• O=c1[nH]c2ccc(CC(=S)N3CCN(c4ccccc4)CC3)cc2o1 = 0
• CC12O[C@H](c3ccccc3)[C@H](c3ccccc3)N1C(=O)C1(C(=O)OCc3ccccc3)CC12 (stereo partly specified) = 0
• c1cc2c(cc1NC1=NCCO1)OCO2 = 0

---

# System: UO-31
# testDetails: NCI tumour cell line growth inhibition, 48 h
Structures can show the parent of a compound that is named as a salt. The source made the active and inactive calls. Cut-off read from the data, not from the text of the source: active = GI50 up to about 1.1 µM and inactive = higher. Residues, ends and D or L forms follow the SMILES beside them. *: point of attachment. Ethyl(2-NMe3+) = C[N+](C)(C)CC*; Boc = CC(C)(C)OC(=O)*
Labels: active, inactive

- O=C1C(O)=C(CC=C(Cl)Cl)C(=O)c2ccccc21: inactive
- CCOC(=O)c1nc2ccc(C(F)(F)F)cc2nc1Oc1ccc(OC)cc1: inactive
- CC1OC(OC2C(O[C@H]3CC[C@@]4(C)C(=CC[C@H]5[C@@H]6C[C@@H]7O[C@]8(CC[C@@H](C)CO8)[C@@H](C)[C@@H]7[C@@]6(C)CC[C@@H]54)C3)OC(CO)C(OC3OC(CO)C(O)C3O)C2O)C(O)C(O)C1O (stereo partly drawn): active
- N#Cc1nnc2c3c(-c4ccc(Cl)cc4)c(C#N)c(O)nc3nn2c1N: inactive
- CSc1ccccc1NC1=NCCO1: inactive
- C[C@]12CC[C@H]3[C@@H](CC=C4C[C@@H](N5CCCC5)CC[C@@]43C)[C@@H]1C[C@H](N1CCOCC1)[C@@H]2O: inactive
- Cc1c(-c2nnc(-c3ccc(Cl)cc3)o2)c(=O)n(-c2ccccc2)n1C: inactive
- CCN(CC)CCNc1ccc(CO)c2sc3ccccc3c(=O)c12 [HYCANTHONE MESYLATE]: inactive
- CC[C@@]1(O)C(=O)OCc2c1cc1n(c2=O)Cc2cc3c(N)cccc3nc2-1 [9-AMINOCAMPTOTHECIN]: active
- Cc1cn(C2CCN(CC3COC(C)(C)O3)O2)c(=O)[nH]c1=O (stereo not drawn): inactive
- c1ccc(-c2nc3sccn3n2)cc1: inactive
- C=C(Br)C(C)(Cl)CCC(Br)C(C)(C)Br (stereo not drawn): inactive
- COc1cc(C2S/C(=C/c3ccccc3)C(=O)N2c2cccc(NC(C)=O)c2)cc(OC)c1OC (stereo not drawn): inactive
- CC(NC(=O)C(Cc1ccc(OCC[N+](C)(C)C)cc1)NC(=O)OC(C)(C)C)C(=O)NC(Cc1ccccc1)C(=O)NCC(N)=O (stereo not drawn) (Boc-Y(Ethyl(2-NMe3+))AFG-NH2; configuration not given here): inactive
- CC(C)c1c2[nH]c3ccccc3c2c(C(C)C)c2[nH]c3ccccc3c12: inactive
- CNC(=O)N1CN(c2ccccc2)C2(CCN(CCCC3(c4ccc(F)cc4)OCCO3)CC2)C1=O: inactive
- O=c1[nH]c2ccc(CC(=S)N3CCN(c4ccccc4)CC3)cc2o1: inactive
- COc1ccc(C[C@H]2NC[C@H](OC(C)=O)[C@H]2OC(C)=O)cc1: active
